- system name: T1, human IL-12 (human, UniProt P29460 23-328; P29459 23-219)
- T1 construct: Recombinant (Peprotech); FLAG-tagged IL-12 in the flow cytometry assays, biotinylated in the IL-12Rβ2 assay; also called hIL-12
- T1 sequence 1: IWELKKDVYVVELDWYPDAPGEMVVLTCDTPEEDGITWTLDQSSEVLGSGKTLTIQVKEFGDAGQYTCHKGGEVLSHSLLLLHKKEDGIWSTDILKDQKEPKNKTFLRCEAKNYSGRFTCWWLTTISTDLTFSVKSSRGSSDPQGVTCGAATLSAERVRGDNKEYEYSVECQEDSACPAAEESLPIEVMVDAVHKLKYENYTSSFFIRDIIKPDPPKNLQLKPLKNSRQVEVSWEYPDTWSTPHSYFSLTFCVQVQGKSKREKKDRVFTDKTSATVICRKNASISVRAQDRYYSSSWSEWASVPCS
- T1 sequence 2: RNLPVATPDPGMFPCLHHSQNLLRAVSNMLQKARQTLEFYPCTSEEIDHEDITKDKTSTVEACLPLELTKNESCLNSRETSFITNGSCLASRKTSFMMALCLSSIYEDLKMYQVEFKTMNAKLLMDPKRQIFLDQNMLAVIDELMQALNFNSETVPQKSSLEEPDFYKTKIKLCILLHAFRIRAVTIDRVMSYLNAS
- assay name: ELISA, coated IL-12

{"columns": ["binder", "binding result"],
 "data": [
  ["Antibody 74 (antibody, human IgG1, kappa, V domains shown) VH: EVQLVQSGAEVKKPGATVKISCKASGYTFSDYYLHWVRQAPGKGLEWMGWIDPENGDTEYAPKFQGKVTITADTSTDTGYLELSSLRSEDTAVYYCAANKELRYFDVWGQGTLVTVSS VL: DIQMTQSPSSVSASVGDRVTITCRASQSISINLHWYQQKPGKAPKLLIKFASQSISGVPSRFSGYGSGTDFSLTINSLQPEDFARYYCQQSNSFPLTFGGGTKVEIKR", "binds"],
  ["Antibody 64 (antibody, human IgG1, kappa, V domains shown) VH: EVQLVQSGAEVKKPGATVKISCKASGYTFSDYYLHWVRQAPGKGLEWMGWIDPENGDTEYAPKFQGKVTITADTSTDTGYLELSSLRSEDTAVYYCAANKELRYFDVWGQGTLVTVSS VL: DIQMTQSPSSVSASVGDRVTITCRASQSISINLHWYQQKPGKAPKLLIYFASQSISGVPSRFSGYGSGTDFSLTINSLQPEDFATYYCQQSNSFPLTFGGGTKVEIKR", "binds"]
]}

Source of measurements: patent US20110262445A1
